# PROCEDURE_DETAILS: Solubility of the compound in phosphate buffer solution at pH 7.4 incubated for 1 hr in shaker and subsequently equilibrated for 72 hrs by LC/MS analysis
# Assay type: physicochemical
Reported values of solubility thermodynamic at 72 h for individual entries
PROPERTY_LABEL: solubility thermodynamic at 72 h (µM)

# MOLECULE, VALUE_QUALIFIER, ASSAY_VALUE
records = [
    ("C[C@H]1NC(=O)c2cc(-c3cccc4c(=O)n(C)c(NC5(C)CC5)nc34)[nH]c21", "=", 56),
    ("C[C@H]1NC(=O)c2cc(-c3cccc4c(=O)n(C5(C)CC5)c(NC5(C)CC5)nc34)[nH]c21", "=", 31),
    ("CC(c1cn(C)cn1)n1c(NC(C)(C)C)nc2c(-c3cc4c([nH]3)[C@@H](C)NC4=O)cccc2c1=O (some centres undefined)", "=", 86),
    ("C[C@H]1NC(=O)c2cc(-c3cccc4c(=O)n(C(C)(C)C)c(NC5(C)CC5)nc34)[nH]c21", "<", 5),
]

---

# PROCEDURE_DETAILS: Volume of distribution at steady state in dog
# Assay type: ADME, Canis lupus familiaris
# TEST_CONTEXT: in vivo, read-out: Vdss

# SUBSTANCE_SMILES, Vd [L/kg]
records = [
    ("C[C@H]1NC(=O)c2cc(-c3cccc4c(=O)n(C5(C)CC5)c(NC5(C)CC5)nc34)[nH]c21", 2.1),
]

---

# PROCEDURE_DETAILS: Solubility of the compound in phosphate buffer solution at pH 7.4 incubated for 1 hr in shaker and subsequently equilibrated for 72 hrs by LC/MS analysis
# Assay type: physicochemical
PROPERTY_LABEL: solubility thermodynamic at 72 h (µM)

# MOLECULE, UNIT_OF_MEASUREMENT, VALUE_QUALIFIER, ASSAY_VALUE
data = [
    ("C[C@H]1NC(=O)c2cc(-c3cccc4c(=O)n(C5CC5)c(NC(C)(C)C)nc34)[nH]c21", "µM", "=", 13),
    ("C[C@H]1NC(=O)c2cc(-c3cccc4c(=O)n(CC5(O)CC5)c(NC5(C)CC5)nc34)[nH]c21", "µM", "<", 5),
    ("CC(C)n1c(NC(C)(C)C)nc2c(-c3cc4c([nH]3)[C@@H](C)NC4=O)cccc2c1=O", "µM", "=", 11),
    ("C[C@H]1NC(=O)c2cc(-c3cccc4c(=O)n(Cc5cn(C)cn5)c(NC(C)(C)C)nc34)[nH]c21", "µM", "=", 22),
    ("C[C@H]1NC(=O)c2cc(-c3cccc4c(=O)n([C@@H](C)c5cn(C)cn5)c(NC5(C)CC5)nc34)[nH]c21", "µM", "=", 60),
    ("C[C@H]1NC(=O)c2cc(-c3cccc4c(=O)n(CC5(O)CC5)c(NC(C)(C)C)nc34)[nH]c21", "µM", "<", 5),
    ("C[C@H]1NC(=O)c2cc(-c3cccc4c(=O)n(C[C@H]5CN(C)CCO5)c(NC(C)(C)C)nc34)[nH]c21", "µM", "<", 5),
    ("C[C@H]1NC(=O)c2cc(-c3cccc4c(=O)n(CC5CC5)c(NC5(C)CC5)nc34)[nH]c21", "µM", "=", 13),
    ("C[C@H]1NC(=O)c2cc(-c3cccc4c(=O)n(CC5COC5)c(NC(C)(C)C)nc34)[nH]c21", "µM", "=", 6),
    ("C[C@H]1NC(=O)c2cc(-c3cccc4c(=O)n(C(C)(C)C)c(NC(C)(C)C)nc34)[nH]c21", "µM", "<", 5),
    ("C[C@H]1NC(=O)c2cc(-c3cccc4c(=O)n(C[C@H]5CCCO5)c(NC(C)(C)C)nc34)[nH]c21", "µM", "=", 19),
    ("C[C@H](c1cn(C)cn1)n1c(NC2(C)CC2)nc2c(-c3cc4c([nH]3)[C@@H](C)NC4=O)cccc2c1=O", "µM", "=", 53),
    ("C[C@H]1NC(=O)c2cc(-c3cccc4c(=O)n(CC5(N)CC5)c(NC(C)(C)C)nc34)[nH]c21", "µM", "<", 5),
    ("C[C@H]1NC(=O)c2cc(-c3cccc4c(=O)n(C5(C)CC5)c(NC(C)(C)C)nc34)[nH]c21", "µM", "<", 5),
    ("CC(c1cn(C)cn1)n1c(NC2(C)CC2)nc2c(-c3cc4c([nH]3)[C@@H](C)NC4=O)cccc2c1=O (mixture of isomers)", "µM", "=", 52),
]

---

# PROCEDURE_DETAILS: Solubility of the compound in phosphate buffer solution at pH 7.4 incubated for 1 hr in shaker and subsequently equilibrated for 72 hrs by LC/MS analysis
# Assay type: physicochemical
Reported values of solubility thermodynamic at 72 h for individual entries
PROPERTY_LABEL: solubility thermodynamic at 72 h (µM)

# SUBSTANCE_SMILES, PROPERTY_LABEL, VALUE_QUALIFIER, ASSAY_VALUE
measured = [
    ("C[C@H]1NC(=O)c2cc(-c3cccc4c(=O)n(C5CC5)c(NC5(C)CC5)nc34)[nH]c21", "solubility thermodynamic at 72 h", "=", 78),
    ("C[C@H]1NC(=O)c2cc(-c3cccc4c(=O)n(CC(C)(C)N)c(NC(C)(C)C)nc34)[nH]c21", "solubility thermodynamic at 72 h", "=", 26),
    ("C[C@H]1NC(=O)c2cc(-c3cccc4c(=O)n(C)c(NC(C)(C)C)nc34)[nH]c21", "solubility thermodynamic at 72 h", "=", 23),
    ("C[C@H]1NC(=O)c2cc(-c3cccc4c(=O)n(C[C@@H]5CN(C)CCO5)c(NC(C)(C)C)nc34)[nH]c21", "solubility thermodynamic at 72 h", "=", 122),
    ("C[C@H]1NC(=O)c2cc(-c3cccc4c(=O)n(CC5(N)CC5)c(NC5(C)CC5)nc34)[nH]c21", "solubility thermodynamic at 72 h", "=", 134),
    ("C[C@H]1NC(=O)c2cc(-c3cccc4c(=O)n(CC5CC5)c(NC(C)(C)C)nc34)[nH]c21", "solubility thermodynamic at 72 h", "<", 5),
    ("C[C@H]1NC(=O)c2cc(-c3cccc4c(=O)n(C5CCC5)c(NC5(C)CC5)nc34)[nH]c21", "solubility thermodynamic at 72 h", "<", 5),
    ("C[C@H]1NC(=O)c2cc(-c3cccc4c(=O)n(C[C@@H]5CCCO5)c(NC(C)(C)C)nc34)[nH]c21", "solubility thermodynamic at 72 h", "=", 12),
]

---

# PROCEDURE_DETAILS: Solubility of the compound in 0.01N HCl at pH 2 incubated for 1 hr in shaker and subsequently equilibrated for 72 hrs by LC/MS analysis
# Type: physicochemical

# COMPOUND, UNIT_OF_MEASUREMENT, VALUE_QUALIFIER, solubility thermodynamic at 72 h
measured = [
    ("C[C@H]1NC(=O)c2cc(-c3cccc4c(=O)n(C(C)(C)C)c(NC(C)(C)C)nc34)[nH]c21", "µM", "<", 5),
    ("CC(C)n1c(NC(C)(C)C)nc2c(-c3cc4c([nH]3)[C@@H](C)NC4=O)cccc2c1=O", "µM", "=", 26),
    ("C[C@H]1NC(=O)c2cc(-c3cccc4c(=O)n(C)c(NC(C)(C)C)nc34)[nH]c21", "µM", "=", 60),
    ("C[C@H]1NC(=O)c2cc(-c3cccc4c(=O)n(C[C@@H]5CN(C)CCO5)c(NC(C)(C)C)nc34)[nH]c21", "µM", "=", 500),
    ("CC(c1cn(C)cn1)n1c(NC(C)(C)C)nc2c(-c3cc4c([nH]3)[C@@H](C)NC4=O)cccc2c1=O (stereo partly drawn)", "µM", "=", 423),
    ("C[C@H]1NC(=O)c2cc(-c3cccc4c(=O)n(C5CCC5)c(NC5(C)CC5)nc34)[nH]c21", "µM", "=", 441),
    ("C[C@H]1NC(=O)c2cc(-c3cccc4c(=O)n(CC5(N)CC5)c(NC5(C)CC5)nc34)[nH]c21", "µM", "=", 454),
    ("C[C@H]1NC(=O)c2cc(-c3cccc4c(=O)n(C5(C)CC5)c(NC(C)(C)C)nc34)[nH]c21", "µM", "<", 5),
]

---

# PROCEDURE_DETAILS: Solubility of the compound in fasted state simulated intestinal fluid at pH 6.8 incubated for 1 hr in shaker and subsequently equilibrated for 72 hrs by LC/MS analysis
# Type: physicochemical
Binning of solubility thermodynamic at 72 h into classes: lower range: < 60 µM; middle range: ≥ 60 µM and < 200 µM; upper range: ≥ 200 µM

# SUBSTANCE_SMILES, CLASS_LABEL
measured = [
    ("C[C@H]1NC(=O)c2cc(-c3cccc4c(=O)n([C@@H](C)c5cn(C)cn5)c(NC5(C)CC5)nc34)[nH]c21", "upper range"),
    ("C[C@H]1NC(=O)c2cc(-c3cccc4c(=O)n(CC5(N)CC5)c(NC5(C)CC5)nc34)[nH]c21", "upper range"),
    ("C[C@H]1NC(=O)c2cc(-c3cccc4c(=O)n(C[C@@H]5CN(C)CCO5)c(NC(C)(C)C)nc34)[nH]c21", "upper range"),
    ("C[C@H]1NC(=O)c2cc(-c3cccc4c(=O)n(CC5CC5)c(NC(C)(C)C)nc34)[nH]c21", "lower range"),
    ("C[C@H]1NC(=O)c2cc(-c3cccc4c(=O)n(C5(C)CC5)c(NC(C)(C)C)nc34)[nH]c21", "lower range"),
    ("C[C@H]1NC(=O)c2cc(-c3cccc4c(=O)n(C)c(NC5(C)CC5)nc34)[nH]c21", "upper range"),
    ("C[C@H]1NC(=O)c2cc(-c3cccc4c(=O)n(CC5(O)CC5)c(NC(C)(C)C)nc34)[nH]c21", "lower range"),
    ("C[C@H]1NC(=O)c2cc(-c3cccc4c(=O)n(CC5CC5)c(NC5(C)CC5)nc34)[nH]c21", "middle range"),
    ("C[C@H]1NC(=O)c2cc(-c3cccc4c(=O)n(C5(C)CC5)c(NC5(C)CC5)nc34)[nH]c21", "middle range"),
    ("C[C@H]1NC(=O)c2cc(-c3cccc4c(=O)n(CC5(N)CC5)c(NC(C)(C)C)nc34)[nH]c21", "lower range"),
    ("C[C@H]1NC(=O)c2cc(-c3cccc4c(=O)n(C5CC5)c(NC5(C)CC5)nc34)[nH]c21", "middle range"),
    ("C[C@H]1NC(=O)c2cc(-c3cccc4c(=O)n(C5CC5)c(NC(C)(C)C)nc34)[nH]c21", "middle range"),
    ("C[C@H]1NC(=O)c2cc(-c3cccc4c(=O)n(CC5COC5)c(NC(C)(C)C)nc34)[nH]c21", "lower range"),
    ("C[C@H]1NC(=O)c2cc(-c3cccc4c(=O)n(C(C)(C)C)c(NC(C)(C)C)nc34)[nH]c21", "lower range"),
    ("C[C@H]1NC(=O)c2cc(-c3cccc4c(=O)n(CC(C)(C)N)c(NC(C)(C)C)nc34)[nH]c21", "middle range"),
    ("C[C@H]1NC(=O)c2cc(-c3cccc4c(=O)n(C[C@@H]5CCCO5)c(NC(C)(C)C)nc34)[nH]c21", "lower range"),
]
